- experimentSummary: Radiochemical purity (RCP) by iTLC after radiolabeling with Ac-225
- Assay type: physicochemical
- conditionDetails: labelling concentration 0.02 mM
parameterMeasured: RCP Ac-225
Entry format: amount then unit.

Recorded RCP Ac-225 for O=C(O)c1cccc(CN2CCOCCOCCN(Cc3cccc(C(=O)O)n3)CCOCCOCC2)n1 [Macropa, reference compound] , please?
100%

Please answer likewise for O=C(O)c1cccc(CN2CCOCCOCCN(Cc3cccc(CN4CCOCCOCCN(Cc5cccc(C(=O)O)n5)CCOCCOCC4)n3)CCOCCOCC2)n1
100%

Please answer likewise for O=C(O)c1cccc(CN2CCOCCOCCN(Cc3cccc(C(=O)NCCCC[C@@H](NC(=O)c4cccc(CN5CCOCCOCCN(Cc6cccc(C(=O)O)n6)CCOCCOCC5)n4)C(=O)O)n3)CCOCCOCC2)n1
100%

---

- experimentSummary: Radiochemical purity (RCP) by iTLC after radiolabeling with Ra-223
- Type: physicochemical
- conditionDetails: labelling concentration 0.02 mM, iTLC
parameterMeasured: RCP Ra-223 (%)
Unit % implied. Number only.

Recorded RCP Ra-223 for COC(=O)c1cccc(CN2CCOCCOCCN(Cc3cc(NC(=O)COCC(=O)NCCN(CCCN(CCNC(=O)COCC(=O)Nc4cc(CN5CCOCCOCCN(Cc6cccc(C(=O)OC)n6)CCOCCOCC5)nc(C(=O)OC)c4)CCNC(=O)COCC(=O)Nc4cc(CN5CCOCCOCCN(Cc6cccc(C(=O)OC)n6)CCOCCOCC5)nc(C(=O)OC)c4)CCNC(=O)COCC(=O)Nc4cc(CN5CCOCCOCCN(Cc6cccc(C(=O)OC)n6)CCOCCOCC5)nc(C(=O)OC)c4)cc(C(=O)OC)n3)CCOCCOCC2)n1 , please?
95

Please answer likewise for O=C(COCC(=O)Nc1cc(CN2CCOCCOCCN(Cc3cccc(C(=O)O)n3)CCOCCOCC2)nc(C(=O)O)c1)NCCN(CCCN(CCNC(=O)COCC(=O)Nc1cc(CN2CCOCCOCCN(Cc3cccc(C(=O)O)n3)CCOCCOCC2)nc(C(=O)O)c1)CCNC(=O)COCC(=O)Nc1cc(CN2CCOCCOCCN(Cc3cccc(C(=O)O)n3)CCOCCOCC2)nc(C(=O)O)c1)CCNC(=O)COCC(=O)Nc1cc(CN2CCOCCOCCN(Cc3cccc(C(=O)O)n3)CCOCCOCC2)nc(C(=O)O)c1
74

Please answer likewise for O=C(CCc1cc(CN2CCOCCOCCN(Cc3cccc(C(=O)O)n3)CCOCCOCC2)nc(C(=O)O)c1)NCCN(CCCN(CCNC(=O)CCc1cc(CN2CCOCCOCCN(Cc3cccc(C(=O)O)n3)CCOCCOCC2)nc(C(=O)O)c1)CCNC(=O)CCc1cc(CN2CCOCCOCCN(Cc3cccc(C(=O)O)n3)CCOCCOCC2)nc(C(=O)O)c1)CCNC(=O)CCc1cc(CN2CCOCCOCCN(Cc3cccc(C(=O)O)n3)CCOCCOCC2)nc(C(=O)O)c1
95

Please answer likewise for COC(=O)c1cccc(CN2CCOCCOCCN(Cc3cc(NC(=O)COCC(=O)NCCN(CCN)CCCN(CCNC(=O)COCC(=O)Nc4cc(CN5CCOCCOCCN(Cc6cccc(C(=O)OC)n6)CCOCCOCC5)nc(C(=O)OC)c4)CCNC(=O)COCC(=O)Nc4cc(CN5CCOCCOCCN(Cc6cccc(C(=O)OC)n6)CCOCCOCC5)nc(C(=O)OC)c4)cc(C(=O)OC)n3)CCOCCOCC2)n1
89

Please answer likewise for COC(=O)c1cccc(CN2CCOCCOCCN(Cc3cc(NC(=O)COCC(=O)NCCN(CCN)CCCN(CCN)CCNC(=O)COCC(=O)Nc4cc(CN5CCOCCOCCN(Cc6cccc(C(=O)OC)n6)CCOCCOCC5)nc(C(=O)OC)c4)cc(C(=O)OC)n3)CCOCCOCC2)n1
80
